tested on: SK-MEL-5; assay: NCI tumour cell line growth inhibition, 48 h
Activity calls are given as the source filed them. No stated cut-off is given here; in the data, active = GI50 up to about 1.1 µM and inactive = higher.
Each item that follows carries a reported GI50.

Observe how each entry below is paired with its result.
CN1C(=O)C(O)CC1c1ccccc1C(F)(F)F (stereo not given): > 100 µM (inactive)
C/C(CN1C(=O)c2ccccc2C1=O)=N\NS(=O)(=O)c1ccc(C)cc1: > 100 µM (inactive)
O=C(O)c1c(-c2nccc3ccccc23)[nH]c(-c2ccccc2)c1S(=O)(=O)O: > 100 µM (inactive)
Cc1ccc(N2C(=O)C3c4[nH]c5ccc(C)cc5c4C4CCC(C(C)(C)C)CC4C3C2=O)cc1 (stereo not given): 32.1 µM (inactive)

What value of measured GI50 is listed for COc1ccc(CC/N=C2\CCC(C(=O)NCCc3ccc(OC)c(OC)c3)N2)cc1OC (stereo not given) ? > 100 µM (inactive)

What value of measured GI50 is listed for "COc1ccc2[nH]c3c(c2c1)CCn1c-3nc2ccccc2c1=O" ? > 25 µM (inactive)

What value of measured GI50 is listed for "O=[N+]([O-])/C(C(Cl)=C(Cl)Cl)=C(/Nc1ccccc1)Sc1ccccc1" ? 20.3 µM (inactive)

What value of measured GI50 is listed for "C/C(=N\O)c1ccc2ccc3ccccc3c2c1" ? 19.2 µM (inactive)

What value of measured GI50 is listed for "Cc1cc2c(=O)cc(-c3ccc(Cl)c(Cl)c3)oc2c(C(=O)O)c1C" ? > 100 µM (inactive)

What value of measured GI50 is listed for O=C(Nc1ccccc1[N+](=O)[O-])C(=O)C(C(=O)c1ccccc1-c1ccccc1)C1OC(=O)c2ccccc21 (stereo not given) ? 18 µM (inactive)
